Molecular target: Phosphatidylinositol 3-kinase C2 domain-containing subunit gamma (Homo sapiens)
Sequence (O75747 whole entry): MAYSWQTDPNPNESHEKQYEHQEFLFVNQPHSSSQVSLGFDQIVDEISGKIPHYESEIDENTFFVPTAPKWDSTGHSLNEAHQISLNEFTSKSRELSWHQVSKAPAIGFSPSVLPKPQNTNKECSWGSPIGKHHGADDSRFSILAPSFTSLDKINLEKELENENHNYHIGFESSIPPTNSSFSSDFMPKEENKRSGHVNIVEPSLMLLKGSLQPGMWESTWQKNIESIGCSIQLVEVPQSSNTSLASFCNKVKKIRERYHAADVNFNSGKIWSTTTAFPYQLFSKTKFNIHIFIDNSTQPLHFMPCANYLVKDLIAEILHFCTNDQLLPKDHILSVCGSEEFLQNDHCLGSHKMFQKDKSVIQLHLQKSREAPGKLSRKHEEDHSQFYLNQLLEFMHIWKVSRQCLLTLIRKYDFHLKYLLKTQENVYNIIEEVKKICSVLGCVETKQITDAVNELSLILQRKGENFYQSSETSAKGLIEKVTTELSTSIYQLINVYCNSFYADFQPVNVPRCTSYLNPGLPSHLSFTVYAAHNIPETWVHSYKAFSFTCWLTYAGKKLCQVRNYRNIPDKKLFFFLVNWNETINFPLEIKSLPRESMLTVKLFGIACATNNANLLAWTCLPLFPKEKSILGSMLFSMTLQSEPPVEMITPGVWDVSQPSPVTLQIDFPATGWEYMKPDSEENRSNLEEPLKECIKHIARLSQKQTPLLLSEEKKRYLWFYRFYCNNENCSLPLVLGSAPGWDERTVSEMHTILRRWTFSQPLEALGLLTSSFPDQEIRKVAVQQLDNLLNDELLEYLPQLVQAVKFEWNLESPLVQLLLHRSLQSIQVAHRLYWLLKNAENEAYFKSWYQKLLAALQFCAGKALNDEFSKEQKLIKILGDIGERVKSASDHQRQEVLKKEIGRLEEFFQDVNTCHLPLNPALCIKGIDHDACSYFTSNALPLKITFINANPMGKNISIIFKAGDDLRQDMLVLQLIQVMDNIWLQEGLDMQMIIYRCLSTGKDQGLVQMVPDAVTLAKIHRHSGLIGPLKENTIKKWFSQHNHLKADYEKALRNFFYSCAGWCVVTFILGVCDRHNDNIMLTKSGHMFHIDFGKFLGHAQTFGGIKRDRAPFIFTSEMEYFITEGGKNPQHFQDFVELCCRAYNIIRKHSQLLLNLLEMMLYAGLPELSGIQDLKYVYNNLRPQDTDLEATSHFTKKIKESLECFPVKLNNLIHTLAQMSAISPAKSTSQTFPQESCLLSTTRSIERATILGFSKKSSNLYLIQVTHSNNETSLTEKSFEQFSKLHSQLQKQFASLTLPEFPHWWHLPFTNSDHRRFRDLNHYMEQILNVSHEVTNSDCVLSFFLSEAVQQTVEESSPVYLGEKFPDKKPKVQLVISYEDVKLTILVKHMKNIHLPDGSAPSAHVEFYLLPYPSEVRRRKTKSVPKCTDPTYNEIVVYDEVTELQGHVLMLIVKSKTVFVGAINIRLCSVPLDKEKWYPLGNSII
Assay: Binding affinity to PIK3C2G
MEASURED_METRIC: pKd
Kindly note that pKd refers to -log10 of the concentration in mol/L and answer with the value alone.

Q: Entry under review: `Nc1nc2c(-c3cnc4ccccc4c3)nccc2[nH]1` . Reported pKd?
Ans: 6.80
